Test system: Fibrinogen (Alexa647-labelled)
Assay: Alexa647-fibrinogen binding to printed small molecules – biochemical, small-molecule microarray, 635/667 nm fluorescence, artefact control for SMM control-protein annotation, profiling panel (AID 1131);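 further: z-score merges 667 nm fluorescence with per-spot signal-to-noise over triplicate slides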
Settings: fibrinogen-A647 binding fluorescence, higher = more signal

sample smiles: C=C(COC)C(=O)CC[C@H](OC(=O)c1ccccc1-c1ccccc1C(=O)O)c1ccc(OCCO)cc1
composite z-score: 0.879
--
sample smiles: COCCOC(=O)N1C(=O)[C@@]2(c3cc(C#CCC(C(=O)OC)C(=O)OC)ccc31)[C@H](c1ccc(OCCO)cc1)N1[C@H](c3ccccc3)[C@H](c3ccccc3)OC(=O)[C@H]1[C@@H]2C(N)=O
composite z-score: 0.924
--
sample smiles: COc1ccccc1CN1C(=O)c2ccccc2[C@](Cc2ccccc2I)(C(=O)NCCN2CCOCC2)[C@@H]1c1ccc(CO)cc1
composite z-score: 0.913

====

Molecular target: Concanavalin-A (Canavalia ensiformis) (UniProt P02866)
Sequence (P02866 whole entry, looked up): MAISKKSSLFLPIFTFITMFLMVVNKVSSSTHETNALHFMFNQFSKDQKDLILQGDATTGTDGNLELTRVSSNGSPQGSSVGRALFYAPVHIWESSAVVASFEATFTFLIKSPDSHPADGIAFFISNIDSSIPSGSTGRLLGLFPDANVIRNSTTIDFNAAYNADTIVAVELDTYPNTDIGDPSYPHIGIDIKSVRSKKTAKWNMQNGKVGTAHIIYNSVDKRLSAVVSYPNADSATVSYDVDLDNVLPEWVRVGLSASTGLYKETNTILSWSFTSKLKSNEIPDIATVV
Assay: compounds binding concanavalin A lectin – biochemical, small-molecule microarray, Alexa647 label, 635 nm, artefact control for SMM control protein annotation, primary screen (AID 1127);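 further: z combines 667 nm emission intensity with signal-to-noise across three replicate slides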
Conditions: ConA-A647 binding fluorescence, higher = more signal
# if value of composite z-score reaches 1, tag Condition met; if it stays below, tag Condition not met

compound: COC(=O)C(CC#Cc1ccc2c(c1)[C@]1(C(=O)N2)[C@H](c2ccc(O)cc2)N2[C@H](c3ccccc3)[C@H](c3ccccc3)OC(=O)[C@H]2[C@@H]1C(=O)O)C(=O)OC
class: Condition not met
//
compound: CC1=C2[C@@H](CCc3ccccc3)OB(O)C[C@@H]2[C@@H]2C(=O)C=CC(=O)[C@@H]2C1
class: Condition not met
//
compound: O=C1c2ccccc2[C@](Cc2ccccc2I)(C(=O)NCC(F)(F)F)[C@H](c2ccc(CO)cc2)N1Cc1ccccc1
class: Condition met
//
compound: CC(C)(C)OC(=O)CC[C@@]1(C(=O)N2CCCCC2)N=C(c2ccc(OCCCO)cc2)O[C@@H]1c1ccccc1N=[N+]=[N-]
class: Condition met
//
compound: C[N+](C)(C)CCCCCCNC(=O)[C@@H]1C[C@@H]2C(=O)NCC(=O)N2[C@@H]1c1cccc(OCCO)c1
class: Condition met
//
compound: CCOc1cc(C(O)C2C=CC3C(=O)NC(=O)C3N2Nc2ccccn2)ccc1O (stereo not given)
class: Condition not met
//
compound: COCCOC(=O)N1C(=O)[C@@]2(c3cc(C#Cc4ccc(OC)cc4)ccc31)[C@H](C(N)=O)[C@H]1C(=O)O[C@H](c3ccccc3)[C@H](c3ccccc3)N1[C@@H]2c1ccc(OCCO)cc1
class: Condition not met
//
compound: Cc1ccc(C(C)CC(O)C2C=CC3C(=O)N(Cc4ccccc4)C(=O)C3N2n2cnnc2)o1 (stereo not given)
class: Condition met
//
compound: C=C(COC)/C(=C/C[C@@H](OC(=O)c1ccncc1)c1cccc(OCCO)c1)c1cc(C(=O)OC)ccc1OC
class: Condition not met
//
compound: COC(=O)c1ccc(OC)c(/C=C\CC(CCc2ccccc2)OC(C)=O)c1 (stereo not given)
class: Condition not met
//
compound: CC1CC/C=C\[C@H]2OC34C=CCN(c5ccc(Cl)cc5)C(=O)[C@H]3N(C(CO)C(C)C)C(=O)[C@]4(C)C2C(=O)O1 (stereo not given in full)
class: Condition not met
//
compound: C[C@]12C(=O)N(CCCCCO)[C@@H]3C(=O)N(c4ccc(Cl)cc4)CC=CC31O[C@@H]1/C=C\CCCOC(=O)C12 (stereo not given in full)
class: Condition not met
//
compound: CCCCCCC#C[Si](O[C@H](c1ccccc1)c1cn(Cc2cccc(Cl)c2)nn1)(C(C)C)C(C)C
class: Condition not met
//
compound: COC(=O)[C@@]1(Cc2ccc(OC)cc2)[C@H]2c3cc(C(=O)N(C)C)n(Cc4cc(F)c(F)c(F)c4)c3C[C@H]2CN1C(=O)c1ccccc1
class: Condition met
//
compound: CC(C)CN1C(=O)[C@@]2(Cc3ccccc31)c1ccccc1C(=O)N(Cc1ccccc1)[C@H]2c1ccc(CO)cc1
class: Condition not met

====

Test: compounds binding Alexa647 anti-His antibody – biochemical, small-molecule microarray, 635 nm fluorescence, artefact control for SMM control protein annotation, primary screen (AID 1128);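 further: score merges feature fluorescence with signal-to-noise for each printed compound spot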
Details: higher = more signal
Assign label 1 to entries whose composite z-score meets or exceeds 1; assign label 0 to the rest.

molecule: CO[C@H]1O[C@H](CO)[C@@H](OC(=O)Nc2ccc(C(F)(F)F)cc2)[C@H](OC(=O)Nc2ccccc2)[C@H]1OC(=O)Nc1ccccc1
class: label 1
//
molecule: CN1C(=O)C2C=CC(C(O)C3CCCCC3)N(N(c3ccccc3)c3ccccc3)C2C1=O (stereo not given)
class: label 0
//
molecule: NC(=O)NCC#Cc1ccc2c(c1)[C@]1(C(=O)N2)[C@H](c2ccc(O)cc2)N2[C@H](c3ccccc3)[C@H](c3ccccc3)OC(=O)[C@H]2[C@@H]1C(N)=O
class: label 0
//
molecule: COc1ccc(C#Cc2ccc3c(c2)[C@]2(C(=O)N3)[C@H](c3ccc(OCCO)cc3)N3[C@H](c4ccccc4)[C@H](c4ccccc4)OC(=O)[C@H]3[C@@H]2C(=O)N2CCN(c3ncccn3)CC2)cc1
class: label 0
//
molecule: Cc1ccc(S[C@]2(C(=O)O)CC(=O)N(C3CCCCC3)[C@@H]2c2ccc(CO)cc2)cc1
class: label 1
//
molecule: C[C@@]1([C@@H](NC(=O)c2cccs2)c2ccc(-c3ccccc3)cc2)C[C@H]1C1CCCCC1
class: label 0
//
molecule: COc1ccc(CCNC(=O)[C@@H]2c3ccccc3C(=O)N(Cc3ccccc3C(F)(F)F)[C@H]2c2ccc(CO)cc2)cc1
class: label 0
//
molecule: [N-]=[N+]=Nc1ccccc1[C@H]1OC(c2ccc(OCCCO)cc2)=N[C@@]1(Cc1ccccc1)C(=O)NCc1ccccc1
class: label 1
//
molecule: COCCOC(=O)N1C(=O)[C@@]2(c3cc(C#CC4(O)CCCCCC4)ccc31)[C@H](C(=O)NC[C@H](O)c1ccccc1)[C@H]1C(=O)O[C@H](c3ccccc3)[C@H](c3ccccc3)N1[C@@H]2c1ccc(OCCO)cc1
class: label 0
//
molecule: COc1cc2c(cc1OC)CN(C(=O)[C@@H]1[C@H]3C(=O)O[C@H](c4ccccc4)[C@H](c4ccccc4)N3[C@H](c3ccc(OCCO)cc3)[C@@]13C(=O)Nc1ccc(C#CCCO)cc13)CC2
class: label 1
//
molecule: O=C1C[C@@](C(=O)NCc2ccccc2)(c2ccc([N+](=O)[O-])cc2)[C@@H](c2ccc(CO)cc2I)N1C1CCCCC1
class: label 1
//
molecule: CC(C)C[C@@H]1NC(=O)[C@@]23C(=O)N[C@@H](Cc4ccccc4)C2[C@H](C)[C@@]2(C)O[C@H]2C3/C=C/C/C=C\CNC(=O)[C@@H]2CCCN2C1=O (stereo not given in full)
class: label 0
//
molecule: [N-]=[N+]=NCc1ccccc1[C@H]1OC(c2ccc(OCCCO)cc2)=N[C@@]1(Cc1ccccc1)C(N)=O
class: label 1
//
molecule: COc1ccc([Si](C)(C)[C@@H]2[C@@H](CCO)O[C@]3(C(=O)N(Cc4ccccc4)c4ccc(N5CCCCC5=O)cc43)[C@H]2C)cc1
class: label 1
//
molecule: O=C1O[C@@H](c2ccccc2)[C@@H](c2ccccc2)N2[C@@H](c3ccc(O)cc3)[C@]3(C(=O)Nc4ccc(C#CC5(O)CCCCCC5)cc43)[C@@H](C(=O)N3CCN(c4ncccn4)CC3)[C@H]12
class: label 1

====

Assay: JC-1 mitochondrial signal, unstimulated HepG2 cells – cell-based, JC-1 fluorescence, 24 h, 100 nL compound, profiling panel (AID 1167); further: test concentration not given here
Details: HepG2 mitochondrial potential, higher = more signal

compound: CC(C)C(CO)N1C(=O)[C@@H]2[C@H]3C(=O)OCC=C[C@H]3OC23C=CCN(CCN2CCOCC2)C(=O)[C@@H]13 (stereo not given in full)
z-score: -0.982

compound: [N-]=[N+]=NCc1ccccc1C[C@@]1(C(=O)NCCN2CCOCC2)N=C(c2ccc(OCCCO)cc2)O[C@@H]1c1ccccc1CN=[N+]=[N-]
z-score: 0.787

compound: COc1ccc([Si](C)(C)[C@@H]2[C@@H](CCO)O[C@]3(C(=O)N(Cc4ccccc4)c4ccc(N5C(=O)COc6ccccc65)cc43)[C@H]2C)cc1
z-score: 0.102

compound: C=CCNC(=O)[C@H]1[C@@H]2C(=O)O[C@@H](c3ccccc3)[C@@H](c3ccccc3)N2[C@@H](c2ccc(OCCO)cc2)[C@]12C(=O)N(C(=O)OCCOC)c1ccc(C#CC3=CCCCC3)cc12
z-score: -0.609

compound: [N-]=[N+]=NCc1ccccc1C[C@]1(C(=O)NCCN2CCOCC2)COC(c2ccc(OCCCO)cc2)=N1
z-score: 2.24

====

# Lookup of reported composite z-score keyed by entry
Target: Neurogenic locus notch homolog protein 2 (Homo sapiens) (UniProt Q04721)
Sequence (Q04721 whole entry, looked up): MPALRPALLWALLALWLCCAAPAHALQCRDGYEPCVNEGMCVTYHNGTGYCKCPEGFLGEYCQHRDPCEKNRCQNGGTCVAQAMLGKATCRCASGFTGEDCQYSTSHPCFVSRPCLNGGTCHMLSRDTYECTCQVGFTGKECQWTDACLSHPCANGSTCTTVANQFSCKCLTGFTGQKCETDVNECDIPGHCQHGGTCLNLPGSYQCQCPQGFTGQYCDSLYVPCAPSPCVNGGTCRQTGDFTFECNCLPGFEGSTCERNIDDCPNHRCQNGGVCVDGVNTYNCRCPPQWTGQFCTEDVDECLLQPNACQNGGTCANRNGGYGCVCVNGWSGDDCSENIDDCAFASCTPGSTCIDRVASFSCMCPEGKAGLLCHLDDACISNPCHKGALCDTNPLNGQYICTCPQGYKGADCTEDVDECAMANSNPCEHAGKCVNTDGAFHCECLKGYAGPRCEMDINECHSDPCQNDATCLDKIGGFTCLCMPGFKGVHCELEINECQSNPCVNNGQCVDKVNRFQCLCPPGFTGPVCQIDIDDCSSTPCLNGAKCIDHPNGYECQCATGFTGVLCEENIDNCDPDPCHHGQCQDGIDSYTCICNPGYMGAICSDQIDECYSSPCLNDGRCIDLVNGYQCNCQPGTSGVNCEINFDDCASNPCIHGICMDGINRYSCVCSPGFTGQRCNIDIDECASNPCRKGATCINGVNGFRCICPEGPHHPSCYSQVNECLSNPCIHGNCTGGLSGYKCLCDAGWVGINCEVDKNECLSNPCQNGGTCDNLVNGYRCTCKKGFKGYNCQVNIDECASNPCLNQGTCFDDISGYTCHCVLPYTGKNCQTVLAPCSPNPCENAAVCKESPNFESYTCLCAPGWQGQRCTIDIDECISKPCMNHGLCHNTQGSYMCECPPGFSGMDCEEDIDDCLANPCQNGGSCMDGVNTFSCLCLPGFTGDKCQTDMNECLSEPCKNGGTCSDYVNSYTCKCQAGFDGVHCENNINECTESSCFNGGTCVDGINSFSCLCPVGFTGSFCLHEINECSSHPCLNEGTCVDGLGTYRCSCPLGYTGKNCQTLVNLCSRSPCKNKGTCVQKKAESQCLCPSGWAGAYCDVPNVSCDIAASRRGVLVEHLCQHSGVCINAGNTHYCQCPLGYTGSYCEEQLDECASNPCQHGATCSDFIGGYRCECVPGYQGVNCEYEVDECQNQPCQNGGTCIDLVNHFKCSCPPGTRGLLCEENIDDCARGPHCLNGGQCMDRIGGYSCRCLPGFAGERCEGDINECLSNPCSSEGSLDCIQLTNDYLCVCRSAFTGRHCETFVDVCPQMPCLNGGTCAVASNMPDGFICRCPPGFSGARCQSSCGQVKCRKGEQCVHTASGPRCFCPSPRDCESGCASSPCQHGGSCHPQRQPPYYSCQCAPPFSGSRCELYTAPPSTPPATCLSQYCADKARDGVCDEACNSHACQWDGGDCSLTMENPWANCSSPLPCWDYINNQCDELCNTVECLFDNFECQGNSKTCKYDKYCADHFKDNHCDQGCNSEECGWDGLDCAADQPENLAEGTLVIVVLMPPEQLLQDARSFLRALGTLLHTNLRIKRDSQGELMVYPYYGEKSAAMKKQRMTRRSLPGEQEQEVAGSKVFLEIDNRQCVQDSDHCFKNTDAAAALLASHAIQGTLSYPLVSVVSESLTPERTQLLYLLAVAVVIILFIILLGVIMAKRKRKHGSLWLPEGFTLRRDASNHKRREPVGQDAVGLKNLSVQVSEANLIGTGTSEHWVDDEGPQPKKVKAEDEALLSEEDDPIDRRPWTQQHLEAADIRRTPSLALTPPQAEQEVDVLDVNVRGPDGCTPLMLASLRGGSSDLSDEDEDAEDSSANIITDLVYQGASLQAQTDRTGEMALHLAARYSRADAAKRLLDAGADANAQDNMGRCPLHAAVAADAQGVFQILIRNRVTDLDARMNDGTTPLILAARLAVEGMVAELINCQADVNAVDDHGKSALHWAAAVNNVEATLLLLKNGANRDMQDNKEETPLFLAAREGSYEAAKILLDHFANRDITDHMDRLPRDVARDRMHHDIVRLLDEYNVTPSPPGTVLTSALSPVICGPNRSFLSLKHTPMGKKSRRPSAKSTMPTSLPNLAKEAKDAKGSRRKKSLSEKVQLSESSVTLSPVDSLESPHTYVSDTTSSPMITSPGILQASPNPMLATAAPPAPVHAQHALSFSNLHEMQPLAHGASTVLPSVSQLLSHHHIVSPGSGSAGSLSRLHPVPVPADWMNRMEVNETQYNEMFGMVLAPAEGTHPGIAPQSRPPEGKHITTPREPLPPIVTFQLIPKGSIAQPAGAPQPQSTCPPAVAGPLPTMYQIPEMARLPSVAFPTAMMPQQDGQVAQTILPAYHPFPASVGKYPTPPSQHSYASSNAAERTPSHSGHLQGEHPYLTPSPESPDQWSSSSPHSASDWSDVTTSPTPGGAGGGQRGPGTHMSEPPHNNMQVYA
Test: small molecules binding Notch2 protein – biochemical, small-molecule microarray, 635 nm fluorescence, stem cell growth factors, primary screen (AID 1073)
Details: higher = more signal

compound: COC(=O)[C@]1(Cc2ccccc2CN=[N+]=[N-])N=C(c2ccc(OCCCO)cc2)O[C@@H]1c1ccccc1
target: Neurogenic locus notch homolog protein 2 (Homo sapiens) (UniProt Q04721)
composite z-score: -1.24

compound: O=C1N(CCS(=O)(=O)c2ccccc2)Cc2ccccc2C[C@@]12COC(c1ccc(OCCCO)cc1)=N2
target: Neurogenic locus notch homolog protein 2 (Homo sapiens) (UniProt Q04721)
composite z-score: 1.45

compound: CC(C)(C)N1CC=CC23O[C@@H]4C=CCCOC(=O)C4[C@H]2C(=O)N(CCCO)[C@@H]3C1=O (some centres undefined)
target: Neurogenic locus notch homolog protein 2 (Homo sapiens) (UniProt Q04721)
composite z-score: -1.5

compound: C[C@H]1ON(c2ccccc2)[C@@H](c2ccccc2)[C@@H]1C(=O)N1C(=O)OC[C@@H]1c1ccccc1
target: Neurogenic locus notch homolog protein 2 (Homo sapiens) (UniProt Q04721)
composite z-score: 0.527

compound: COC(=O)[C@H]1N=C(c2ccc(OCCCO)cc2)O[C@H]1c1ccccc1CN=[N+]=[N-]
target: Neurogenic locus notch homolog protein 2 (Homo sapiens) (UniProt Q04721)
composite z-score: -0.525

compound: COC(=O)c1ccc(OC)c(/C=C\CC(CCc2ccccc2)OC(=O)c2ccncc2)c1 (centres undefined)
target: Neurogenic locus notch homolog protein 2 (Homo sapiens) (UniProt Q04721)
composite z-score: -0.714

compound: CO[C@H]1O[C@H](CO)[C@@H](OC(=O)Nc2ccc(C(F)(F)F)cc2)[C@H](OC(=O)Nc2ccccc2)[C@H]1OC(=O)Nc1ccccc1
target: Neurogenic locus notch homolog protein 2 (Homo sapiens) (UniProt Q04721)
composite z-score: 1.58

compound: O=C(O)[C@]1(CCS(=O)(=O)c2ccccc2)N=C(c2ccc(OCCCO)cc2)O[C@@H]1c1ccccc1
target: Neurogenic locus notch homolog protein 2 (Homo sapiens) (UniProt Q04721)
composite z-score: 0.506

compound: C=C(COC)C(=O)CC[C@H](OC(=O)c1ccccc1-c1ccccc1C(=O)O)c1ccc(OCCO)cc1
target: Neurogenic locus notch homolog protein 2 (Homo sapiens) (UniProt Q04721)
composite z-score: -0.0342
